- Test System: Neuropeptide FF receptor 2 (Homo sapiens, UniProt Q9Y5X5)
- Sequence (Q9Y5X5 whole entry): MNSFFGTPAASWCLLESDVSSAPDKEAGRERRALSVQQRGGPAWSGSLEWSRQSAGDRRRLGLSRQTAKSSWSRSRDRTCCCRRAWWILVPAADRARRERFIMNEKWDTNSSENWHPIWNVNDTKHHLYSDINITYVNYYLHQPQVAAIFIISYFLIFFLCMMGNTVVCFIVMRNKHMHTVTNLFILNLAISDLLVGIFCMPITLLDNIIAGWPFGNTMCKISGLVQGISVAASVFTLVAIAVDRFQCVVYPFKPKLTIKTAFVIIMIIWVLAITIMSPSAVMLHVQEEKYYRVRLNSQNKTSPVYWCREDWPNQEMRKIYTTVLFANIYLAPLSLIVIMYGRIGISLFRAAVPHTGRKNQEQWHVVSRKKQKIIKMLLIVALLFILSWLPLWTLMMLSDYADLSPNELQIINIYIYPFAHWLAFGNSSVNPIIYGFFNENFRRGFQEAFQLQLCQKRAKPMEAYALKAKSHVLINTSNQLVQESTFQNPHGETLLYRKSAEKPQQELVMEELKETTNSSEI
- Protocol Details: Agonist activity at NPFFR2 (unknown origin) expressed in HEK293-A cells assessed as reduction in forskolin-induced cAMP accumulation incubated for 30 mins by competition PKA binding assay
- Type: functional, cell-based
- Assay Conditions: read-out: EC50
Non-standard residues stand in square brackets, D forms with d. Residues, ends and D or L forms follow the SMILES beside them. NMeY = CN[C@@H](Cc1ccc(O)cc1)C(=O)O; NMeF = CN[C@@H](Cc1ccccc1)C(=O)O
Entries and their pEC50
Quick note: pEC50 means taking -log10 of the concentration in moles per liter.

Compound	pEC50
C[C@@H](NC(=O)[C@@H](N)Cc1ccc(O)cc1)C(=O)NCC(=O)N(C)[C@@H](Cc1ccccc1)C(=O)N[C@@H](CCC(N)=O)C(=O)N1CCC[C@H]1C(=O)N[C@@H](CCC(N)=O)C(=O)N[C@@H](CCCNC(=N)N)C(=O)N[C@@H](Cc1ccccc1)C(N)=O (H-Y[dA]G[NMeF]QPQRF-NH2)	6.57
CSCC[C@@H](NC(=O)[C@H](Cc1ccccc1)NC(=O)CNC(=O)[C@@H](C)NC(=O)[C@@H](N)Cc1ccc(O)cc1)C(=O)N1CCC[C@H]1C(=O)N[C@@H](CCC(N)=O)C(=O)N[C@@H](CCCNC(=N)N)C(=O)N[C@@H](Cc1ccccc1)C(N)=O (H-Y[dA]GF[dM]PQRF-NH2)	6.50

Task: # query: pEC50 | item C[C@@H](NC(=O)[C@@H](N)Cc1ccc(O)cc1)C(=O)NCC(=O)N[C@@H](Cc1ccccc1)C(=O)NCC(=O)N1CCC[C@H]1C(=O)N[C@@H](CCC(N)=O)C(=O)N[C@@H](CCCNC(=N)N)C(=O)N[C@@H](Cc1ccccc1)C(N)=O (H-Y[dA]GFGPQRF-NH2) | system: Neuropeptide FF receptor 2 (Homo sapiens, UniProt Q9Y5X5)
Output: 6.73

Task: Another: CN[C@@H](Cc1ccc(O)cc1)C(=O)N[C@H](C)C(=O)NCC(=O)N[C@@H](Cc1ccccc1)C(=O)N[C@@H](CCC(N)=O)C(=O)N1CCC[C@H]1C(=O)N[C@@H](CCC(N)=O)C(=O)N[C@@H](CCCNC(=N)N)C(=O)N[C@@H](Cc1ccccc1)C(N)=O (H-[NMeY][dA]GFQPQRF-NH2)
Output: 6.88
